Tested on: 377384-186-R-J1-PDC complex spheroid viability;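 also: spheroids exposed to compounds for seven days before readout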
Assay: Anticancer human tumor 377384-186-R-J1-PDC patient-derived pancreatic carcinoma cell line growth inhibition [RAS]
Conditions: second compound 0.03 µM; first compound 0.1 µM; stronger effect = lower value
As shown below, each of these molecules has a reported viability, T/C value.
result.type: viability, T/C (%)

INSERT INTO results (molecule, result_type, measurement) VALUES
  ('NC1c2ccccc2OC12CCN(c1cnc3c(N4CCCc5ncccc54)n[nH]c3n1)CC2 (configuration not stated) + CCn1c(-c2cccnc2C(C)OC)c2c3cc(ccc31)N1CCOC(CC(NC(=O)C(C(C)C)N(C)C(=O)C3(F)CCN(C(=O)C#CC(C)(C)N(C)C)CC3)C(=O)N3CCCC(N3)C(=O)OCC(C)(C)C2)C1', 'viability, T/C', 84.4),
  ('Nc1ccn(C2OC(CO)C(O)C2(F)F)c(=O)n1 (configuration not stated) + CCn1c(-c2cc(N3CCN(C)CC3)cnc2C(C)OC)c2c3cc(ccc31)-c1csc(n1)CC(NC(=O)C1CC1C)C(=O)N1CCCC(N1)C(=O)OCC(C)(C)C2', 'viability, T/C', 2.11);
